Sourced from PubChem BioAssay (Tox21)

# Experimental Details: qHTS assay to identify small molecule antagonists of the retinoid-related orphan receptor gamma (ROR-gamma) signaling pathway - cell viability counter screen (AID 1159520); further: nearly all actives have a fitted effect of over 50% in size
# Measurement Context: Tet-on RORgamma CHO cells viability, ATP luminescence, 16 h; series mostly up to 92.4 µM
Records with an inconclusive call do not appear. The source made the active and inactive calls. The call rests on the fitted dose curve; in most records, active means well fitted cell-killing curve with a large enough effect in the repeat runs; inconclusive means weak or mixed curves, or effect the other way; inactive means no such curve, though single readings can be large or run the other way.
Outcomes: active, inactive

INSERT INTO assay_data (molecule, category_label) VALUES
  ('CC(C)[C@H](C(=O)OC(C#N)c1cccc(Oc2ccccc2)c1)c1ccc(OC(F)F)cc1 (stereo partly drawn)', 'inactive'),
  ('CN(CCCC(=O)c1cccnc1)N=O', 'inactive'),
  ('CC1(c2ccc(Oc3ccccc3)cc2)OC(=O)N(Nc2ccccc2)C1=O (stereo not drawn)', 'active'),
  ('CC(C)[C@H](C(=O)O[C@H](C#N)c1cccc(Oc2ccccc2)c1)c1ccc(Cl)cc1', 'inactive'),
  ('O=CC(Br)(Br)Br', 'active'),
  ('Nc1ccc(Cl)cc1C(=O)c1ccccc1', 'inactive'),
  ('CCN', 'inactive'),
  ('COc1cc(C=O)cc2c1[C@H](COC(N)=O)[C@]1(OC(C)=O)ON2C[C@H]2[C@@H]1N2C(C)=O', 'inactive'),
  ('N#Cc1ccccc1Cl', 'inactive'),
  ('Nc1ccc(Sc2ccc(N)cc2)cc1', 'inactive'),
  ('COC(=O)N(C(=O)N1COC2(C(=O)OC)Cc3cc(Cl)ccc3C2=N1)c1ccc(OC(F)(F)F)cc1 (stereo not drawn)', 'inactive'),
  ('O=S(=O)(c1ccc(Cl)cc1)c1ccc(Cl)cc1', 'inactive'),
  ('CCCCOP(=O)(CCCC)OCCCC', 'inactive'),
  ('N#CNC#N', 'inactive'),
  ('C1CCC2CCCCC2C1 (stereo not drawn)', 'inactive'),
  ('CCN(CC)c1c([N+](=O)[O-])cc(C(F)(F)F)c(N)c1[N+](=O)[O-]', 'inactive'),
  ('CC(C)OS(C)(=O)=O', 'inactive'),
  ('Cc1ccc(OP(=O)(Oc2ccccc2)Oc2ccccc2)cc1', 'inactive');

----------
# Experimental Details: qHTS assay to identify small molecule agonists of H2AX - cell viability counter screen (AID 1224847); further: nearly all actives have a fitted effect of over 30% in size
# Measurement Context: CHO-K1 viability, CellTiter-Glo luminescence, 3 h; series mostly up to 154 µM
Results filed as inconclusive are left out. Active and inactive are the calls of the source. The call rests on the fitted dose curve.
Outcomes: active, inactive

INSERT INTO results (chemical_structure, category_label) VALUES
  ('Clc1ccc(CO/N=C(\Cn2ccnc2)c2ccc(Cl)cc2Cl)c(Cl)c1', 'active'),
  ('CCCCOP(=O)(CCCC)OCCCC', 'inactive'),
  ('COS(=O)(=O)c1ccc(C)cc1', 'inactive'),
  ('Nc1ccc([N+](=O)[O-])cc1Cl', 'inactive'),
  ('Clc1ccc(-c2ccccc2)cc1', 'inactive'),
  ('C[C@]12CC[C@H](O)C[C@H]1CC[C@@H]1[C@@H]2C[C@@H](O)[C@]2(C)[C@@H](C3=CC(=O)OC3)CC[C@]12O', 'inactive'),
  ('O=[N+]([O-])c1ccc(Oc2ccc(C(F)(F)F)cc2[N+](=O)[O-])cc1', 'inactive');

----------
# Experimental Details: qHTS assay to identify small molecule agonists of the NFkB signaling pathway - cell viability counter screen (AID 1159515); further: potency means the concentration at half of the fitted maximal effect; nearly all actives have a fitted effect of over 55% in size
# Measurement Context: NFkB-bla ME-180 viability, CellTiter-Glo luminescence, 5 h; series mostly up to 61 µM
Records with an inconclusive call do not appear. Calls of active or inactive are those of the source. Calls follow the shape of the full dose curve.
Examples of compounds with documented Potency follow.
Measured Attribute: Potency

INSERT INTO measurements (chemical_structure, test_result) VALUES
  ('CC(C)OC(=O)C(O)(c1ccc(Cl)cc1)c1ccc(Cl)cc1', '49 µM (active)'),
  ('CCCCCCCCCCCCCCCCCCn1cc[n+](C)c1', '48.7 µM (active)');

----------
# Target Or System: Nuclear receptor ROR-gamma (Homo sapiens)
# Experimental Details: qHTS assay to identify small molecule antagonists of the retinoid-related orphan receptor gamma (ROR-gamma) signaling pathway (AID 1159521; further: nearly all actives have a fitted effect of over 50% in size)
# Measurement Context: Tet-on RORgamma CHO cells, RORE-luciferase, 16 h; series mostly up to 92.4 µM
Inconclusive results are not listed. Calls of active or inactive are those of the source. The call rests on the fitted dose curve; in most records, active means well fitted inhibition curve with a large enough effect in the repeat runs; inconclusive means weak or mixed curves, or effect the other way; inactive means no such curve, though single readings can be large or run the other way.
Classes used: active, inactive

INSERT INTO results (molecule, target_or_system, category_label) VALUES
  ('C1CCC2CCCCC2C1 (centres undefined)', 'Nuclear receptor ROR-gamma (Homo sapiens)', 'inactive'),
  ('CC(O)C#N (centres undefined)', 'Nuclear receptor ROR-gamma (Homo sapiens)', 'inactive'),
  ('FC(Cl)(Cl)Cl', 'Nuclear receptor ROR-gamma (Homo sapiens)', 'inactive'),
  ('CC(C)(C)C(O)C(Oc1ccc(-c2ccccc2)cc1)n1cncn1 (centres undefined)', 'Nuclear receptor ROR-gamma (Homo sapiens)', 'active'),
  ('O=[N+]([O-])c1cc(C(F)(F)F)c(Cl)c([N+](=O)[O-])c1Cl', 'Nuclear receptor ROR-gamma (Homo sapiens)', 'active'),
  ('Cc1c(Cl)c(=O)oc2cc(OP(=O)(OCCCl)OCCCl)ccc12', 'Nuclear receptor ROR-gamma (Homo sapiens)', 'inactive'),
  ('Cc1cc(Cl)ccc1O[C@H](C)C(=O)O', 'Nuclear receptor ROR-gamma (Homo sapiens)', 'inactive'),
  ('CCC(C)(C)C(=O)OC1=C(c2ccc(Cl)cc2Cl)C(=O)OC12CCCCC2', 'Nuclear receptor ROR-gamma (Homo sapiens)', 'inactive'),
  ('COc1ccc(OC)c(C=O)c1', 'Nuclear receptor ROR-gamma (Homo sapiens)', 'inactive');

----------
# Experimental Details: qHTS assay to identify small molecule antagonists of the thyroid receptor (TR) signaling pathway (AID 743065); further: nearly all actives have a fitted effect of over 55% in size
# Measurement Context: GH3.TRE-Luc, T3-stimulated luciferase inhibition, 23.5 h; series mostly up to 70.3 µM
Inconclusive results are not listed. Activity calls are given as the source filed them. The call rests on the fitted dose curve; in most records, active means well fitted inhibition curve with a large enough effect in the repeat runs; inconclusive means weak or mixed curves; inactive means no such curve, though single readings can be large or run the other way.
Outcome codes: class 1 for active, class 0 for inactive

INSERT INTO assay_data (molecule, category_label) VALUES
  ('CC(C)CC(C)Nc1ccc(Nc2ccccc2)cc1 (stereo not drawn)', 'class 1'),
  ('O=C(Nc1ccc2[nH]ccc2c1)c1cc2cc(F)ccc2n1Cc1cccc(F)c1', 'class 1'),
  ('CN(C)C1CSSSC1', 'class 0'),
  ('CN(C)S(=O)(=O)N(SC(F)(Cl)Cl)c1ccccc1', 'class 1'),
  ('Cc1c(Cl)c(=O)oc2cc(OP(=O)(OCCCl)OCCCl)ccc12', 'class 0'),
  ('O=C/C(Cl)=C(/Cl)C(=O)O', 'class 1'),
  ('BrC(Br)Br', 'class 0'),
  ('O=[N+]([O-])c1cc([N+](=O)[O-])c2ccccc2c1', 'class 0');

----------
# Target Or System: Luciferin 4-monooxygenase (Photinus pyralis)
# Experimental Details: qHTS assay to identify small molecule inhibitors of firefly luciferase (AID 1224835); further: nearly all actives have a fitted effect of over 25% in size
# Measurement Context: purified P. pyralis luciferase, luminescence inhibition; series mostly up to 115 µM
Inconclusive results are not listed. Activity calls are given as the source filed them. Calls come from the whole dose curve; as a rule, active = well fitted inhibition curve with a large enough effect in the repeat runs; inconclusive = weak or mixed curves; inactive = flat fitted curve, though single readings scatter.
Labels: yes (1) (active), no (0) (inactive)

INSERT INTO results (chemical_structure, category_label) VALUES
  ('Oc1c(Cl)c(Cl)cc(Cl)c1Cl', 'yes (1)'),
  ('C=CC(=O)OCC(COC(=O)C=C)(COC(=O)C=C)COC(=O)C=C', 'no (0)'),
  ('CC(C)C(=O)Cl', 'no (0)'),
  ('CCCCOCN(C(=O)CCl)c1c(CC)cccc1CC', 'no (0)');

----------
# Experimental Details: A CellTox Green Cytotoxicity Assay to monitor cytotoxicity in HEK293 cells - 32 hour (AID 1224881); further: nearly all actives have a fitted effect of over 40% in size
# Measurement Context: CellTox Green fluorescence; series mostly up to 76.8 µM
Results filed as inconclusive are left out. The source made the active and inactive calls. The call rests on the fitted dose curve; in most records, active means well fitted activation curve with a large enough effect in the repeat runs; inconclusive means weak or mixed curves; inactive means flat fitted curve, though single readings scatter.
Outcomes: 1 = active, 0 = inactive

INSERT INTO assay_data (compound, category_label) VALUES
  ('ClC(Cl)=C(Cl)Cl', 0),
  ('Cc1cccc(OP(=O)(Oc2cccc(C)c2)Oc2cccc(C)c2)c1', 0),
  ('CCc1ccccc1C', 0),
  ('C=COCCCl', 0),
  ('O=[N+]([O-])c1cc(C(F)(F)F)c(Cl)c([N+](=O)[O-])c1Cl', 1),
  ('CC(C)CC(C)N (stereo not drawn)', 0),
  ('CN(C)C(=S)[S-].CN(C)C(=S)[S-].[Cu+2]', 1),
  ('COc1ccc([N+](=O)[O-])cc1O', 0),
  ('C[C@@H](Oc1ccc(Cl)cc1Cl)C(=O)O', 0),
  ('N#CCCSCCC#N', 0),
  ('CC(C)(C)OO', 0),
  ('CC(C)CC(C)(c1ccc(O)cc1)c1ccc(O)cc1', 1),
  ('Cc1cc(C)c(C2=C(OC(=O)CC(C)(C)C)C3(CCCC3)OC2=O)c(C)c1', 0),
  ('Cc1ccc(C(=O)Cl)cc1', 0),
  ('CC(C)C(=O)Cl', 0),
  ('[Cl][Sb]([Cl])[Cl]', 0),
  ('c1ccc(OCC2CO2)cc1 (stereo not drawn)', 0),
  ('CCOC(=O)C1(c2ccccc2)CCN(CCC(C#N)(c2ccccc2)c2ccccc2)CC1', 0),
  ('CCOCCOC(C)=O', 0),
  ('Nc1ccccc1C(=O)OC/C=C/c1ccccc1', 0),
  ('c1cc[c]([Sb]([c]2ccccc2)[c]2ccccc2)cc1', 0),
  ('CC(C)N1C(=O)N(c2ccccc2)CSC1=NC(C)(C)C', 0),
  ('CCCCCCCCCCCCBr', 0),
  ('CCN(CC)C(=S)[S-].CCN(CC)C(=S)[S-].[Zn+2]', 1),
  ('N#CCc1ccc(Cl)cc1', 0),
  ('c1ccc2cc3c(cc2c1)-c1cccc2cccc-3c12', 0),
  ('Oc1c(Br)c(Br)c(Br)c(Br)c1Br', 0),
  ('CCCCCCCCCCCCCN1CC(C)OC(C)C1 (stereo not drawn)', 0);
